# TGT: Motilin receptor (Homo sapiens)
# EXPERIMENT_SUMMARY: Agonist activity at human recombinant motilin receptor expressed in HEK293 cells by FLIPR assay
# Assay type: functional, cell-based
MEASURED_ENDPOINT: EC50 (nM)

# SMILES_TEXT, TGT, ENDPOINT_UNIT, TEST_VALUE
rows = [
    ("C[C@@H]1CN(Cc2ccc(-c3cccnc3C(=O)N3CCC(Nc4ccc(C#N)cc4)CC3)cc2)C[C@H](C)N1", "Motilin receptor (Homo sapiens)", "nM", 631),
    ("C[C@@H]1CN(Cc2ccc(-c3ccccc3C(=O)N3CCC(C(=O)c4ccc(F)cc4)CC3)cc2)C[C@H](C)N1", "Motilin receptor (Homo sapiens)", "nM", 63.1),
    ("COc1ccc(NC2CCN(C(=O)c3ncccc3-c3ccc(CN4C[C@@H](C)N[C@@H](C)C4)cc3)CC2)cc1", "Motilin receptor (Homo sapiens)", "nM", 1000),
    ("CC(C)CCC(=O)N(C)Cc1ccccc1-c1ccc(CN2C[C@@H](C)N[C@@H](C)C2)cc1", "Motilin receptor (Homo sapiens)", "nM", 251),
]

====

# EXPERIMENT_SUMMARY: Oral bioavailability in dog
# Assay type: ADME, organism-based, Canis lupus familiaris
# MEASUREMENT_PARAMETERS: in vivo

# SMILES_TEXT, ENDPOINT_UNIT, bioavailability
records = [
    ("C[C@@H]1CN(Cc2ccc(-c3cccnc3C(=O)N3CCC(Nc4ccc(F)cc4)CC3)cc2)C[C@H](C)N1", "%", 58),
]

====

# System: Liver microsomes
# EXPERIMENT_SUMMARY: Intrinsic clearance in human liver microsome
# Assay type: ADME
MEASURED_ENDPOINT: log10(CL) (log10 of the value in mL/min/g)

# SMILES_TEXT, log10(CL)
records = [
    ("C[C@@H]1CN(Cc2ccc(-c3cccnc3C(=O)N3CCC(Nc4cccc(F)c4)CC3)cc2)C[C@H](C)N1", 0.64),
    ("C[C@@H]1CN(Cc2ccc(-c3ccccc3C(=O)N3CCC(Nc4ccc(Cl)cc4)CC3)cc2)C[C@H](C)N1", 0.90),
    ("C[C@@H]1CN(Cc2ccc(-c3cccnc3C(=O)N3CCC(Nc4cccc(F)c4)CC3)cc2F)C[C@H](C)N1", 0.97),
    ("C[C@@H]1CN(Cc2ccc(-c3ccccc3CN(C)C(=O)CS(=O)(=O)c3ccccc3)cc2)C[C@H](C)N1", 0.83),
    ("CCN(CCc1ccccc1)C(=O)c1ccccc1-c1ccc(CN2C[C@@H](C)N[C@@H](C)C2)cc1", 1.60),
    ("C[C@@H]1CN(Cc2ccc(-c3ccccc3C(=O)N3CCC(Nc4ccccc4)CC3)cc2)C[C@H](C)N1", 0.85),
    ("C[C@@H]1CN(Cc2ccc(-c3ccccc3CN(C)C(=O)Cc3cccc(Cl)c3)cc2)C[C@H](C)N1", 1.30),
    ("C[C@@H]1CN(Cc2ccc(-c3ccccc3C(=O)N3CCC(Cc4ccc(F)cc4)CC3)cc2)C[C@H](C)N1", 1.46),
    ("C[C@@H]1CN(Cc2ccc(-c3cccnc3C(=O)N3CCC(Nc4ccc(F)c(F)c4)CC3)cc2)C[C@H](C)N1", 0.85),
    ("C[C@@H]1CN(Cc2ccc(-c3ccccc3CN(C)C(=O)COc3ccccc3)cc2)C[C@H](C)N1", 0.69),
    ("Cc1cc(CC(=O)N(C)Cc2ccccc2-c2ccc(CN3C[C@@H](C)N[C@@H](C)C3)cc2)on1", 0.38),
    ("C[C@@H]1CN(Cc2ccc(-c3cccnc3C(=O)N3CCC(Nc4ccc(F)cc4)CC3)cc2)C[C@H](C)N1", 0.41),
    ("C[C@@H]1CN(Cc2ccc(-n3ccnc3C(=O)N3CCC(Nc4cccc(F)c4)CC3)cc2)C[C@H](C)N1", 0.53),
    ("COc1cc(-c2cccnc2C(=O)N2CCC(Nc3ccc(F)cc3)CC2)ccc1CN1C[C@@H](C)N[C@@H](C)C1", 0.72),
    ("C[C@@H]1CN(Cc2ccc(-c3cccnc3C(=O)N3CCC(Nc4cccc(C#N)c4)CC3)cc2)C[C@H](C)N1", 0.54),
    ("C[C@@H]1CN(Cc2ccc(-c3cccnc3C(=O)N3CCC(Cc4ccc(F)cc4)CC3)cc2)C[C@H](C)N1", 1.20),
    ("C[C@@H]1CN(Cc2ccc(-c3cccnc3C(=O)N3CCC(Nc4ccc(F)cc4)CC3)cc2F)C[C@H](C)N1", 0.74),
]

====

# TGT: Motilin receptor (Homo sapiens, UniProt O43193)
# Sequence (O43193 whole entry): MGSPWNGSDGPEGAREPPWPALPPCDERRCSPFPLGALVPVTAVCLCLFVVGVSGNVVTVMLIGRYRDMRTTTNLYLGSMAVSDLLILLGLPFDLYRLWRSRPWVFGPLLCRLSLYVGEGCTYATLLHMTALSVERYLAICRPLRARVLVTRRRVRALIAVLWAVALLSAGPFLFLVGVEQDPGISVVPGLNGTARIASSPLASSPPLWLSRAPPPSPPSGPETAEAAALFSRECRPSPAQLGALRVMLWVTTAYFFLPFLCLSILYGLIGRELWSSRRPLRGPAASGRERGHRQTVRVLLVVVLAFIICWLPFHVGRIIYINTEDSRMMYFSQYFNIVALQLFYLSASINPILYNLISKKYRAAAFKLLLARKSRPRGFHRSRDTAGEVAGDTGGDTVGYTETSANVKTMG
# EXPERIMENT_SUMMARY: Agonist activity at human recombinant motilin receptor expressed in HEK293 cells by FLIPR assay
# Format: functional, cell-based
pEC50: −log10 of the molar value.

# SMILES_TEXT, TGT, pEC50
measured = [
    ("CCN(CCc1ccccc1)C(=O)c1ccccc1-c1ccc(CN2C[C@@H](C)N[C@@H](C)C2)cc1", "Motilin receptor (Homo sapiens, UniProt O43193)", 8.10),
    ("C[C@@H]1CN(Cc2ccc(-c3cccnc3C(=O)N3CCC(Nc4ccccc4F)CC3)cc2)C[C@H](C)N1", "Motilin receptor (Homo sapiens, UniProt O43193)", 7.30),
    ("Cc1ccc(S(=O)(=O)NCC(=O)N(C)Cc2ccccc2-c2ccc(CN3C[C@@H](C)N[C@@H](C)C3)cc2)cc1", "Motilin receptor (Homo sapiens, UniProt O43193)", 7.70),
    ("Cc1cc(CC(=O)N(C)Cc2ccccc2-c2ccc(CN3C[C@@H](C)N[C@@H](C)C3)cc2)on1", "Motilin receptor (Homo sapiens, UniProt O43193)", 6.00),
    ("C[C@@H]1CN(Cc2ccc(-c3cccnc3C(=O)N3CCC(Nc4cccc(F)c4)CC3)cc2F)C[C@H](C)N1", "Motilin receptor (Homo sapiens, UniProt O43193)", 8.00),
    ("C[C@@H]1CN(Cc2ccc(-c3cccnc3C(=O)N3CCC(Nc4cccc(F)c4)CC3)cc2)C[C@H](C)N1", "Motilin receptor (Homo sapiens, UniProt O43193)", 8.20),
    ("C[C@@H]1CN(Cc2cnc(-c3ccccc3C(=O)N3CCC(Nc4ccc(F)cc4)CC3)s2)C[C@H](C)N1", "Motilin receptor (Homo sapiens, UniProt O43193)", 6.40),
    ("C[C@@H]1CN(Cc2ccc(-c3ccccc3C(=O)N3CCC(Nc4ccccc4)CC3)cc2)C[C@H](C)N1", "Motilin receptor (Homo sapiens, UniProt O43193)", 8.30),
    ("C[C@@H]1CN(Cc2ccc(-c3ccccc3CN(C)C(=O)CS(=O)(=O)c3ccccc3)cc2)C[C@H](C)N1", "Motilin receptor (Homo sapiens, UniProt O43193)", 8.00),
    ("C[C@@H]1CN(Cc2ccc(-c3ccccc3C(=O)N3CCC(Oc4ccc(F)cc4)CC3)cc2)C[C@H](C)N1", "Motilin receptor (Homo sapiens, UniProt O43193)", 7.20),
    ("C[C@@H]1CN(Cc2ccc(-c3cccnc3C(=O)N3CCC(Nc4ccccc4C#N)CC3)cc2)C[C@H](C)N1", "Motilin receptor (Homo sapiens, UniProt O43193)", 6.10),
    ("COCCCN(Cc1ccccc1-c1ccc(CN2CCNCC2)cc1)C(=O)COc1ccccc1", "Motilin receptor (Homo sapiens, UniProt O43193)", 6.40),
    ("COc1cc(-c2cccnc2C(=O)N2CCC(Nc3ccc(F)cc3)CC2)ccc1CN1C[C@@H](C)N[C@@H](C)C1", "Motilin receptor (Homo sapiens, UniProt O43193)", 8.30),
    ("C[C@@H]1CN(Cc2ccc(-c3ccccc3CN(C)C(=O)Cc3ccc(F)cc3)cc2)C[C@H](C)N1", "Motilin receptor (Homo sapiens, UniProt O43193)", 7.30),
    ("COc1cccc(CCN(Cc2ccccc2-c2ccc(CN3C[C@@H](C)N[C@@H](C)C3)cc2)C(=O)NC2CCCCC2)c1", "Motilin receptor (Homo sapiens, UniProt O43193)", 7.30),
    ("C[C@@H]1CN(Cc2ccc(-c3cccnc3C(=O)N3CCC(Cc4ccc(F)cc4)CC3)cc2)C[C@H](C)N1", "Motilin receptor (Homo sapiens, UniProt O43193)", 8.00),
    ("COc1cccc(CCN(Cc2ccccc2-c2ccc(CN3CCNCC3)cc2)C(=O)COc2ccccc2)c1", "Motilin receptor (Homo sapiens, UniProt O43193)", 6.60),
]

====

# TGT: Motilin receptor (Homo sapiens, UniProt O43193)
# EXPERIMENT_SUMMARY: Agonist activity at human recombinant motilin receptor expressed in HEK293 cells by FLIPR assay
# Type: functional, cell-based
pEC50: −log10 of the molar value.

# COMPOUND, TGT, COMPARISON_OPERATOR, pEC50
rows = [
    ("C[C@@H]1CN(Cc2ccc(-c3ccccc3C(=O)N3CCC(Nc4ccc(F)cc4)CC3)cc2)C[C@H](C)N1", "Motilin receptor (Homo sapiens, UniProt O43193)", "=", 8.60),
    ("C[C@@H]1CN(Cc2ccc(N3CCCC3C(=O)N3CCC(Nc4cccc(F)c4)CC3)cc2)C[C@H](C)N1 (stereo partly specified)", "Motilin receptor (Homo sapiens, UniProt O43193)", "=", 5.60),
    ("C[C@@H]1CN(Cc2ccc(-c3ccccc3C(=O)N3CCC(Nc4ccc(F)cc4)CC3)nc2)C[C@H](C)N1", "Motilin receptor (Homo sapiens, UniProt O43193)", "<", 5.00),
    ("C[C@@H]1CN(Cc2ccc(-c3cccnc3C(=O)N3CCC(Nc4ccc(F)cc4)CC3)cc2)C[C@H](C)N1", "Motilin receptor (Homo sapiens, UniProt O43193)", "=", 7.70),
    ("C[C@@H]1CN(Cc2ccc(-c3cccnc3C(=O)N3CCC(Nc4cccc(C#N)c4)CC3)cc2)C[C@H](C)N1", "Motilin receptor (Homo sapiens, UniProt O43193)", "=", 7.70),
    ("C[C@@H]1CN(Cc2ccc(-c3cccnc3C(=O)N3CCC(Nc4ccc(F)cc4)CC3)cc2F)C[C@H](C)N1", "Motilin receptor (Homo sapiens, UniProt O43193)", "=", 8.40),
    ("C[C@@H]1CN(Cc2ccc(-c3ccccc3CN(C)C(=O)CSc3ccccc3)cc2)C[C@H](C)N1", "Motilin receptor (Homo sapiens, UniProt O43193)", "=", 8.50),
    ("C[C@@H]1CN(Cc2ccc(-c3ccccc3CN(C)C(=O)COc3ccc(F)cc3)cc2)C[C@H](C)N1", "Motilin receptor (Homo sapiens, UniProt O43193)", "=", 7.50),
    ("C[C@@H]1CN(Cc2ccc(-c3ccccc3C(=O)N3CCC(Cc4ccc(F)cc4)CC3)cc2)C[C@H](C)N1", "Motilin receptor (Homo sapiens, UniProt O43193)", "=", 8.00),
    ("C[C@@H]1CN(Cc2ccc(-c3ccccc3CN(C)C(=O)Cc3cccc(Cl)c3)cc2)C[C@H](C)N1", "Motilin receptor (Homo sapiens, UniProt O43193)", "=", 7.10),
    ("C[C@@H]1CN(Cc2ccc(-c3ccccc3CN(C)C(=O)COc3ccccc3)cc2)C[C@H](C)N1", "Motilin receptor (Homo sapiens, UniProt O43193)", "=", 7.10),
    ("C[C@@H]1CN(Cc2ccc(-c3ccccc3C(=O)N3CCC(Nc4ccc(Cl)cc4)CC3)cc2)C[C@H](C)N1", "Motilin receptor (Homo sapiens, UniProt O43193)", "=", 7.30),
    ("C[C@@H]1CN(Cc2ccc(-c3ccccc3C(=O)N3CCC(NC(=O)c4ccc(F)cc4)CC3)cc2)C[C@H](C)N1", "Motilin receptor (Homo sapiens, UniProt O43193)", "<", 5.00),
    ("C[C@@H]1CN(Cc2ccc(-n3ccnc3C(=O)N3CCC(Nc4cccc(F)c4)CC3)cc2)C[C@H](C)N1", "Motilin receptor (Homo sapiens, UniProt O43193)", "=", 7.80),
    ("C[C@@H]1CN(Cc2ccc(-c3cccnc3C(=O)N3CCC(Nc4ccc(C(N)=O)cc4)CC3)cc2)C[C@H](C)N1", "Motilin receptor (Homo sapiens, UniProt O43193)", "=", 5.60),
    ("C[C@@H]1CN(Cc2ccc(-c3cccnc3C(=O)N3CCC(Nc4ccc(F)c(F)c4)CC3)cc2)C[C@H](C)N1", "Motilin receptor (Homo sapiens, UniProt O43193)", "=", 8.70),
]
